Target: T1, STXBP5 peptide complexed with HLA-A*02:01 on T2 cells (human)
T1 construct: whole, on cells
Test: flow cytometry, peptide-loaded T2 cells;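 note: binding of single-chain Fv antibody constructs, raised in XenoMouse, to peptide-pulsed T2 cells measured by flow cytometry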
MEASURED ENDPOINT: Signal/background

Recorded results for 2 binders are shown here.
18179-C1 (scFv, scFv in bacterial lysate, detected with anti-Flag M2) scFv: EVQLLESGAEVKKPGASVKVSCKASGYTFTRNGLSWVRQAPGQGLEWMGWISGYNGDTNYAQKLQGRGTMTTDTSTSTAYMELRSLRSDDTAVYYCARGRATFDYWGQGTLVTVSSGGGGSGGGGSGGGGSELVMTQSPSSLSASVGDRVTITCRASQGISNYLAWYQQKPGKVPKLLISAASTLQSGVPSRFSGSGSGTDFTLTISSLQPEDVATYYCQKYNSAPFTFGPGTKVDIK
0.9
18182-E5 (scFv, scFv in bacterial lysate, detected with anti-Flag M2) scFv: EVQLLESGGGLVQPGGSLRLSCAASGFTFSSYAMSWVRQAPGKGLEWVSTISGSGGGTYYADSVKGRFTISRDNSKNTLYLQMNSLRAEDTAVYYCATGKGVHLGFDYWGQGTLVTVSSGGGGSGGGGSGGGGSELVLTQPPSVSVAPGQTARITCGGNNIGSKSVHWHQQKPGQAPVLVVYDDNDRPSGIPERFSGSNSGNTATLTISRVEAGDEADYYCQVWDYSSDHVVFGGGTKLTVL
0.8

Proceeding to the next binder to report its Signal/background.
Request: Return reported Signal/background. Input binder: 18181-G10 (scFv, scFv in bacterial lysate, detected with anti-Flag M2) scFv: EVQLLESGPGLVKPSQTLSLTCTVSGDSISSNPYYWSWIRQLPGKGLEWIGYISYSGSTFYNPSLKSRVTISVDTSKNQFSLNLTSVTAADTAVYYCARDRLWFGVLNYYYGMDVWGLGTTVTVSSGGGGSGGGGSGGGGSELVMTQSPLSLPVTPGEPASISCRSSQSLLHSTGYNYVDWYLQKPGQSPQLLIYLGSNRASGVPDRFSGSGSGTDFTLKISRVEAEDVGFYYCMQALQTPRTFGQGTKVEIK
Response: 1
